We begin with a simple list: items and their reported pest or weed control at 100 ppm.
- System: Zymoseptoria tritici
- procedure details: Leaf blotch of wheat (SEPTTR) disease control on wheat seedlings
- Assay type: in vivo
- setup conditions: 24 h, High volume application, 100 ppm, 1 Day Protectant, read-out: SEPTTR disease control rating, 1DP

Some solved entries appear below for comparison.
Data request, read-out pest or weed control at 100 ppm, for COc1ccc([C@H](C)[C@H](C)OC(=O)[C@@H](NC(=O)c2nccc(OC)c2O)C(C)C)c(C)c1 [Example 142]
> 80%

I would be grateful if you could share the reported pest or weed control at 100 ppm for COc1ccnc(C(=O)N[C@H](C)C(=O)O[C@@H](C)[C@H](C)c2ccccc2C)c1O [Example 150] .
< 80%

Would you mind telling me what pest or weed control at 100 ppm value was observed for COc1ccnc(C(=O)NCC(=O)O[C@@H](C)[C@@H](C)c2ccc(F)cc2)c1O [Example 121] ?
< 0%

Okay, next one:
Any idea what pest or weed control at 100 ppm was measured for COc1ccnc(C(=O)N[C@@H](C)C(=O)O[C@@H](C)[C@@H](C)c2ccccc2C)c1O [Example 175] ?
< 80%

###

- Tested on: Phakopsora pachyrhizi
- procedure details: Asian soybean rust (PHAKPA) disease control on soybean seedlings
- Assay type: in vivo
- setup conditions: Phakopsora pachyrhizi, 72 h, High volume application at 25 ppm, 3 day curative, read-out: PHAKPA 3DC (3 Day Curative) disease control
measurement kind: pest or weed control at 25 ppm

Which pest or weed control at 25 ppm is listed for COc1ccnc(C(=O)N[C@@H](C)C(=O)O[C@H](C)[C@H](C)C2CCCC2)c1OC(C)=O [Example 252] ?
< 80%

Fill blank: measured pest or weed control at 25 ppm of the compound COc1ccnc(C(=O)NCC(=O)O[C@@H](C)[C@H](C)c2ccc(F)cc2C)c1OC(=O)C(C)C [Example 197] is ____.
< 0%

Sample COc1ccnc(C(=O)N[C@H](C(=O)O[C@@H](C)[C@@H](C)c2ccc(F)cc2)C(C)C)c1OC(C)=O [Example 187] — what was its pest or weed control at 25 ppm?
< 0%

For the compound CCCC(=O)Oc1c(OC)ccnc1C(=O)N[C@@H](C)C(=O)O[C@@H](C)[C@@H](C)c1ccccc1C [Example 279] , what pest or weed control at 25 ppm is on record?
> 80%

Can you share its pest or weed control at 25 ppm? I mean this compound: COc1ccnc(C(=O)N[C@H](C(=O)O[C@@H](C)[C@@H](C)c2ccc(F)cc2)C(C)C)c1OC(=O)C(C)C [Example 212]
< 80%

Further cases:
What pest or weed control at 25 ppm value was documented for this compound, COc1ccnc(C(=O)N[C@@H](C)C(=O)O[C@H](C)[C@H](C)c2ccccc2C(F)(F)F)c1OC(=O)C(C)C [Example 239] ?
< 80%

# lookup: pest or weed control at 25 ppm of COc1ccc([C@H](C)[C@H](C)OC(=O)[C@@H](NC(=O)c2nccc(OC)c2OC(C)=O)C(C)C)c(C)c1 [Example 188]
< 80%

###

- Tested on: Puccinia triticina
- procedure details: Wheat brown rust (PUCCRT) disease control on wheat seedlings
- Type: in vivo
- setup conditions: 72 h, High volume application, 100 ppm, 3 Day Curative, read-out: PUCCRT disease control rating, 3DC
- Method: Technical grades of materials were dissolved in acetone, which were then mixed with nine volumes of water containing 110 ppm Triton X-100. The fungicide solutions were applied onto wheat seedlings using an automated booth sprayer to run-off. All sprayed plants were allowed to air dry prior to further handling. All fungicides were evaluated using the aforementioned method for their activity vs. all target diseases, unless stated otherwise. […]
Below is a list of entries, each paired with its recorded pest or weed control at 100 ppm value.

Worked examples, 6 compounds total:
What pest or weed control at 100 ppm appears in the records for this compound with Puccinia triticina? COc1ccc([C@@H](C)[C@@H](C)OC(=O)[C@@H](NC(=O)c2nccc(OC)c2O)C(C)C)c(C)c1 [Example 147]
< 80%

Write down the reported pest or weed control at 100 ppm of COc1ccc([C@H](C)[C@H](C)OC(=O)[C@H](C)NC(=O)c2nccc(OC)c2O)c(C)c1 [Example 132] , test system: Puccinia triticina.
> 80%

Give pest or weed control at 100 ppm (Puccinia triticina) of the following compound: COc1ccnc(C(=O)NCC(=O)O[C@H](C)[C@H](C)c2ccc(F)cc2C)c1O [Example 123]
< 80%

Query pest or weed control at 100 ppm on Puccinia triticina for COc1ccnc(C(=S)N[C@@H](C)C(=O)O[C@@H](C)[C@@H](C)c2ccccc2C(F)(F)F)c1O [Example 267]
< 80%

Given the entry COc1ccnc(C(=O)N[C@H](C(=O)O[C@@H](C)[C@@H](C)c2ccc(F)cc2)C(C)C)c1O [Example 141] , what pest or weed control at 100 ppm was observed with Puccinia triticina?
< 80%

Lookup: pest or weed control at 100 ppm / Puccinia triticina / COc1ccc([C@H](C)[C@H](C)OC(=O)[C@@H](C)NC(=O)c2nccc(OC)c2O)c(C)c1 [Example 152]
< 80%

Now examine the next entry.
Find the measured pest or weed control at 100 ppm: item COc1ccnc(C(=O)N[C@H](C)C(=O)O[C@@H](C)[C@H](C)c2ccc(F)cc2C)c1O [Example 149] , target or system Puccinia triticina.
< 0%

Source: patent US20200399222A1
